# Test system: SW-620 colon
# Assay Method Text: NCI tumour cell line growth inhibition, 48 h
Assay Readout: TGI

Entry `CN1CCN(C)C1c1ccc(C2N(C)CCN2C)cc1` , TGI reported as > 100 µM

TGI in this record for CC(=O)C1C(=O)C(=O)N(c2ccc([N+](=O)[O-])cc2[N+](=O)[O-])C1=O (configuration not stated) : > 100 µM

Notebook: `COc1cccc([C@@H]2C/C(=N\NC(=O)C(=O)N[C@@H](C)c3ccccc3)c3ccccc3N2)c1` , TGI read as > 100 µM

Please fill in: TGI reported for NC(=O)N/N=C(\CC1OC(=O)c2ccccc21)c1ccc([N+](=O)[O-])cc1 (configuration not stated) = > 100 µM

So for `Cc1nnn(C)c1-c1cnc2c3ccc(C(C)(C)O)cc3n([C@H](c3ccccc3)C3CCOCC3)c2c1` , the logged TGI turned out to be > 72.1 µM

get_value(item= `COc1cc2c(cc1OC)[C@@H]1C(=O)c3ccc4c(c3O[C@@H]1CO2)C[C@H](C(C)C)O4` , readout=TGI) returns > 46.7 µM

molecule `COc1ccc(/C=C/c2onc3c(=O)n(C)nc(-c4ccccc4)c23)cc1` , TGI observed: > 100 µM

* * *

# Tested on: NCI-H23 lung
# Assay Method Text: NCI tumour cell line growth inhibition, 48 h
Assay Readout: TGI

Here is how some molecules turned out for TGI.
[
  {
    "Molecule": "O=C(O)c1cnc2c(ccc3[nH]cccc32)c1=O",
    "TGI": "> 100 µM"
  },
  {
    "Molecule": "N#CC(O)CCOCc1ccccc1 (stereo unspecified)",
    "TGI": "> 100 µM"
  },
  {
    "Molecule": "COc1c(Sc2c(SCSc3cnc4ccccc4c3Sc3cnc4ccccc4c3OC)cnc3ccccc23)cnc2ccccc12",
    "TGI": "> 100 µM"
  },
  {
    "Molecule": "Cc1[nH]c2ncn3[nH]c(=S)nc3c2c1Cc1ccccc1",
    "TGI": "> 100 µM"
  },
  {
    "Molecule": "O=C1CCC2(c3ccc(Cl)cc3)Nc3ccccc3N12 (stereo unspecified)",
    "TGI": "> 100 µM"
  }
]

The molecule `CCOC(=O)c1cc(=O)c2cccc3c2n1CCS3` showed TGI equal to > 100 µM

Per the records, this molecule ( `O=c1[nH]c2nc3ccccc3c(=O)n2/c1=C/c1ccccc1` ) has TGI equal to > 100 µM

molecule `Cc1ccc(S(=O)(=O)N(CCN)c2cc3c4c(c2)Oc2cccc5c2C4c2c(cccc2O3)O5)cc1` , TGI observed: > 100 µM

molecule `Cc1cccc(N=Nc2c(C)nn(C(=O)CC(=O)Nc3ccc(Cl)cc3)c2C)c1` , TGI observed: > 100 µM

* * *

Recorded TGI values for a group of compounds are listed next.
# System: HS 578T breast
# Assay Method Text: NCI tumour cell line growth inhibition, 48 h

TGI in this record for `CC(C)C1=Cc2ccc3c(c2C(=O)C1=O)CCCC3` : 55.9 µM

Record `Cc1ccc(S(=O)(=O)N(CCN)c2cc3c4c(c2)Oc2cccc5c2C4c2c(cccc2O3)O5)cc1` , field TGI: 38.2 µM

// TGI value for `CC(=O)Nc1ccc(S(=O)(=O)c2nnc(NC(C)=O)s2)cc1` : > 100 µM

Sure, the documented TGI for CC(NNC(=O)c1ccncc1)c1ccccc1 (configuration not stated) is > 100 µM
